Reported IC50 values follow for various compounds
# SYSTEM UNDER TEST: Recombinant His-tagged NAMPT (Homo sapiens, UniProt P43490)
# Construct: His; host or cells: E. coli
# Sequence (P43490 whole entry): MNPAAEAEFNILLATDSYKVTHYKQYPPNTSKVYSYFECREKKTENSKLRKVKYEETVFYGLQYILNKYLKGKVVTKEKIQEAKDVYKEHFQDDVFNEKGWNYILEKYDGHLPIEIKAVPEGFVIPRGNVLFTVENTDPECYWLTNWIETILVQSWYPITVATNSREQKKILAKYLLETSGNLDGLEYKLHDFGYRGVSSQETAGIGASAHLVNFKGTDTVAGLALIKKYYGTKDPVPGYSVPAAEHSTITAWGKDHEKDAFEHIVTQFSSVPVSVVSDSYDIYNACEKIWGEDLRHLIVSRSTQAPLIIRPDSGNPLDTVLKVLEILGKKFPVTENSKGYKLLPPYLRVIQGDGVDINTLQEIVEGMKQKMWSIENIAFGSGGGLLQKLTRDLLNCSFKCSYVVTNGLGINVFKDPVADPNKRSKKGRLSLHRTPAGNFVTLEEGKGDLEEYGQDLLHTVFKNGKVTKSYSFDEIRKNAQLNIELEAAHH
# EXPERIMENT: Biochemical inhibition assay: NAMPT enzymatic reaction, NMN quantified by mass spectrometry
# CONDITION LABEL: 33 nM NAMPT, 1 μM NAM, 100 μM PRPP, 2.5 mM ATP, 30 minutes at room temperature; read-out: Biochem IC50

LINE NOTATION	IC50 (nM)
Cc1cccc(C(=O)N2CCC(CCCCNC(=O)c3cc4cnccc4[nH]3)CC2)c1F	47.5
O=C(NCCCCC1CCN(C(=O)c2cccc(Cl)c2)CC1)c1cc2ccncc2s1	33.4
Cn1cc(CC(=O)N2CCC(CCCCNC(=O)c3ccc4nccn4c3)CC2)c2ccccc21	29.5
COc1cccc(C(=O)N2CCN(CCCCNC(=O)c3cc4cnccc4[nH]3)CC2)c1	436
COCc1ccc(C(=O)N2CCC(CCCCNC(=O)c3ccc4nccn4c3)CC2)nc1	57.4
O=C(NCCCCC1CCN(C(=O)c2cc(Cl)cc(Cl)c2)CC1)c1cc2ccncc2s1	30
Cc1c(F)cccc1C(=O)N1CCC(CCCCNC(=O)c2ccc3nccn3c2)CC1	13.1
O=C(NCCCCC1CCN(C(=O)c2ccccc2F)CC1)c1cc2ccncc2s1	8.8
COc1cc(OC)cc(C(=O)N2CCC(CCCCNC(=O)c3cc4cnccc4[nH]3)CC2)c1	74.1
O=C(NCCCCC1CCN(C(=O)c2ccc(C(F)(F)F)nc2)CC1)c1cc2ccncc2s1	90.3
O=C(NCCCCC1CCN(C(=O)c2ccccc2OC(F)(F)F)CC1)c1cc2ccncc2s1	10.4
O=C(NCCCCC1CCN(C(=O)c2ccc3nccn3c2)CC1)c1ccc2nccn2c1	8.5
CCOc1cccc(C(=O)N2CCC(CCCCNC(=O)c3ccc4nccn4c3)CC2)c1	10.2
Cc1cnc(C(=O)N2CCC(CCCCNC(=O)c3ccc4nccn4c3)CC2)cn1	10.9
O=C(NCCCCC1CN(C(=O)c2ccccc2)C1)c1cc2cnccc2[nH]1	23.2
Cn1c(C(=O)N2CCC(CCCCNC(=O)c3ccc4nccn4c3)CC2)cc2ccccc21	124
CC(C)Oc1ccc(C(=O)N2CCC(CCCCNC(=O)c3cc4cnccc4[nH]3)CC2)cc1	93.7
COCc1ccc(C(=O)N2CCC(CCCCNC(=O)c3cc4cnccc4[nH]3)CC2)nc1	31.1
O=C(NCCCCC1CCN(C(=O)c2ccc3c(c2)OCO3)CC1)c1cc2cnccc2[nH]1	78.3
O=C(NCCCCC1CCN(S(=O)(=O)c2cccnc2)CC1)c1cc2cnccc2[nH]1	16.1

----------
# SYSTEM UNDER TEST: Recombinant His-tagged NAMPT (Homo sapiens)
# Construct: His; host or cells: E. coli
# EXPERIMENT: Biochemical inhibition assay: NAMPT enzymatic reaction, NMN quantified by mass spectrometry
# CONDITION LABEL: 33 nM NAMPT, 1 μM NAM, 100 μM PRPP, 2.5 mM ATP, 30 minutes at room temperature; read-out: Biochem IC50
# From the text: Biochemical Inhibition Assay NAMPT Protein Purification Recombinant His-tagged NAMPT was produced in E. coli cells, purified over a Ni column, and further purified over a size-exclusion column by XTAL Biostructures. The NAMPT Enzymatic Reaction […] A mass spectrometry-based assay was used to measure the Nampt reaction product (NMN) and the internal control (L-Cystathionine). NMN and L-Cystathionine were detected using the services of Biocius Lifesciences with the RapidFire system. […]
pIC50: −log10 of the molar value.

LINE NOTATION	pIC50
O=C(NCCCCC1CCN(C(=O)c2cccc(Cl)c2Cl)CC1)c1cc2ccncc2s1	7.70
Cc1ccc(F)cc1C(=O)N1CCC(CCCCNC(=O)c2cc3ccncc3s2)CC1	8.35
CC(=O)N1CCC(C(=O)N2CCC(CCCCNC(=O)c3ccc4nccn4c3)CC2)CC1	7.40
COCc1ccc(C(=O)N2CCC(CCCCNC(=O)c3cc4ccncc4s3)CC2)nc1	7.74
CC(=O)N1CCC(C(=O)N2CCC(CCCCNC(=O)c3cc4cnccc4[nH]3)CC2)CC1	6.87
O=C(NCCCCC1CCN(C(=O)c2cc3cc(F)ccc3[nH]2)CC1)c1cc2ccncc2s1	7.52
O=C(NCCCCC1CCN(C(=O)c2ccc(F)cc2)CC1)c1ccc2nccn2c1	7.92
O=C(NCCCCC1CCN(C(=O)c2ccc(F)cc2F)CC1)c1cc2cnccc2[nH]1	7.41
O=C(NCCCCC1CCN(C(=O)c2csc(-c3cccnc3)n2)CC1)c1cc2cnccc2[nH]1	7.09

----------
# SYSTEM UNDER TEST: Recombinant His-tagged NAMPT (Homo sapiens)
# Construct: His; host or cells: E. coli
# EXPERIMENT: Biochemical inhibition assay: NAMPT enzymatic reaction, NMN quantified by mass spectrometry
# CONDITION LABEL: 33 nM NAMPT, 1 μM NAM, 100 μM PRPP, 2.5 mM ATP, 30 minutes at room temperature; read-out: Biochem IC50
pIC50: −log10 of the molar value.
Reported pIC50 values follow for various compounds

LINE NOTATION	pIC50
COc1ccc(C(=O)N2CCC(CCCCNC(=O)c3ccc4nccn4c3)CC2)cc1	7.63
COc1cc(Cl)ccc1C(=O)N1CCC(CCCCNC(=O)c2cc3cnccc3[nH]2)CC1	7.21
CC(C)c1ccc(C(=O)N2CCC(CCCCNC(=O)c3ccc4nccn4c3)CC2)cn1	7.41
COc1ccc(F)cc1S(=O)(=O)N1CCC(CCCCNC(=O)c2cc3cnccc3[nH]2)CC1	7.63
O=C(NCCCCC1CCN(S(=O)(=O)c2ccc(Cl)cc2)CC1)c1cc2cnccc2[nH]1	7.30
O=C(NCCCCC1CCN(C(=O)c2ccccc2Cl)CC1)c1cc2cnccc2[nH]1	7.80
COc1ncc(Cl)cc1C(=O)N1CCC(CCCCNC(=O)c2ccc3nccn3c2)CC1	7.91
CCOc1ccccc1C(=O)N1CCC(CCCCNC(=O)c2cc3cnccc3[nH]2)CC1	7.52
O=C(NCCCOC1CCN(C(=O)c2ccccc2F)CC1)c1cc2cnccc2[nH]1	7.46

----------
# System: A2780 cells
# EXPERIMENT: In-vitro cell proliferation assay (SRB, 72 hours)
# Type: cell-based
# CONDITION LABEL: Homo sapiens, sulforhodamine B (SRB) assay
pIC50: −log10 of the molar value.

LINE NOTATION	SYSTEM UNDER TEST	pIC50
O=C(NCCCCC1CCN(C(=O)c2cccnc2)CC1)c1cc2cnccc2[nH]1	A2780 cells	7.64
O=C(NCCCCC1CCN(C(=O)c2csc(-c3cccnc3)n2)CC1)c1cc2ccncc2s1	A2780 cells	7.07
O=C(NCCCCC1CCN(C(=O)c2cc(Cl)cc(Cl)c2)CC1)c1cc2ccncc2s1	A2780 cells	7.29
COc1cc(OC)cc(C(=O)N2CCC(CCCCNC(=O)c3cc4ccncc4s3)CC2)c1	A2780 cells	7.69

----------
# SYSTEM UNDER TEST: Recombinant His-tagged NAMPT (Homo sapiens)
# Construct: His; host or cells: E. coli
# EXPERIMENT: Biochemical inhibition assay: NAMPT enzymatic reaction, NMN quantified by mass spectrometry
# CONDITION LABEL: 33 nM NAMPT, 1 μM NAM, 100 μM PRPP, 2.5 mM ATP, 30 minutes at room temperature; read-out: Biochem IC50
So basically: is IC50 under 50 nM? Then T. Not under? Then F.

LINE NOTATION	CLASS LABEL
O=C(NCCCCC1CCN(C(=O)c2cnccc2C(F)(F)F)CC1)c1ccc2nccn2c1	T
O=C(NCCCCC1CCN(C(=O)c2ccc3c(c2)OCO3)CC1)c1ccc2nccn2c1	T
CC(C)c1ccc(C(=O)N2CCC(CCCCNC(=O)c3cc4ccncc4s3)CC2)cn1	F
O=C(NCCCCC1CCN(C(=O)c2ccccc2F)CC1)c1cc2cnccc2[nH]1	T
CC(C)Oc1ccc(C(=O)N2CCC(CCCCNC(=O)c3cc4ccncc4s3)CC2)cc1	T
O=C(NCCCCC1CCN(C(=O)C2CCCCC2)CC1)c1cc2cnccc2[nH]1	F
O=C(NCCCCC1CCN(C(=O)c2ccc(C(F)(F)F)cc2)CC1)c1cc2ccncc2s1	F
O=C(NCCCCC1CCN(C(=O)c2cnccc2C(F)(F)F)CC1)c1cc2cnccc2[nH]1	T
COc1ccc(C(=O)N2CCC(CCCCNC(=O)c3cc4cnccc4[nH]3)CC2)cc1F	F
CSc1ncccc1C(=O)N1CCC(CCCCNC(=O)c2cc3ccncc3s2)CC1	T
O=C(NCCCCC1CCN(C(=O)c2ccc(Cl)cc2Cl)CC1)c1ccc2nccn2c1	T
O=C(NCCCCC1CCN(C(=O)c2ccc3cc[nH]c3c2)CC1)c1cc2cnccc2[nH]1	F
O=C(NCCCCC1CCN(C(=O)c2ccc(F)cc2)CC1)c1cc2ccncc2s1	F
COc1ccc(Cl)cc1C(=O)N1CCC(CCCCNC(=O)c2ccc3nccn3c2)CC1	T
O=C(NCCCCC1CCN(C(=O)c2ccc(-n3cccn3)cc2)CC1)c1cc2ccncc2s1	T
CCOc1ncccc1C(=O)N1CCC(CCCCNC(=O)c2cc3cnccc3[nH]2)CC1	T
O=C(NCc1ccc(S(=O)(=O)c2ccc(C(=O)N3CCCC3)cc2)cc1)c1cnc2[nH]ncc2c1	T
O=C(NCCCCC1CCN(C(=O)c2csc(-c3cccnc3)n2)CC1)c1cc2ccncc2s1	F
Cc1ncsc1C(=O)N1CCC(CCCCNC(=O)c2cc3ccncc3s2)CC1	T
